Test system: Escherichia coli TOP10
Experiment Notes: shrunken log2 fold change of peptide-encoding DNA abundance (4.5 h post-induction vs induction); higher = less antimicrobial activity (less host growth inhibition)
Experimental Conditions: time post-induction: 4.5 h; library: site-saturation at positions 5, 18, 19, 20
Kindly state shrunken log2 fold change for each of the entries shown.
Give bare numbers.

Worked examples, 3 sequences total:
RRIRCRPPRLPRPRPRPWKQPRP ... -0.181
RRIRLRPPRLPRPRPRPTMIPRP ... -0.164
RRIRKRPPRLPRPRPRPKGAPRP ... 0.217

Look at each sequence and report its shrunken log2 fold change.
1. RRIRLRPPRLPRPRPRPELEPRP
2. RRIRMRPPRLPRPRPRPALGPRP
3. RRIRKRPPRLPRPRPRPEGLPRP

A:
[0.23, 0.625, 1.05]

Look at each sequence and report its shrunken log2 fold change.
1. RRIRHRPPRLPRPRPRPTSLPRP
2. RRIRLRPPRLPRPRPRPINCPRP

A:
1. -0.135
2. -0.0463

###

Test system: Escherichia coli TOP10
Experiment Notes: shrunken log2 fold change of peptide-encoding DNA abundance (4.5 h post-induction vs induction); higher = less antimicrobial activity (less host growth inhibition)
Experimental Conditions: time post-induction: 4.5 h; library: site-saturation at positions 5, 18, 19, 20
Readout Type: shrunken log2 fold change
Give bare numbers.

RRIRKRPPRLPRPRPRPRYSPRP ... -0.705
RRIRERPPRLPRPRPRPEYQPRP ... 0.00497
RRIRHRPPRLPRPRPRPRPNPRP ... 0.321
RRIRYRPPRLPRPRPRPGLNPRP ... -0.489
RRIRWRPPRLPRPRPRPAQKPRP ... 0.157

Look at each sequence and report its shrunken log2 fold change.
1. RRIRYRPPRLPRPRPRPMERPRP
2. RRIRARPPRLPRPRPRPENIPRP
3. RRIRCRPPRLPRPRPRPLDCPRP

A:
1: 0.0776; 2: -0.251; 3: 0.0147

###

System: Escherichia coli TOP10
Experiment Notes: shrunken log2 fold change of peptide-encoding DNA abundance (4.5 h post-induction vs induction); higher = less antimicrobial activity (less host growth inhibition)
Experimental Conditions: time post-induction: 4.5 h; library: site-saturation at positions 5, 18, 19, 20
Readout Type: shrunken log2 fold change

Worked examples, 5 sequences total:
RRIRTRPPRLPRPRPRPSICPRP ... -0.899
RRIRIRPPRLPRPRPRPERQPRP ... 0.0212
RRIRARPPRLPRPRPRPYTWPRP ... -0.428
RRIRNRPPRLPRPRPRPIYSPRP ... -0.0185
RRIRPRPPRLPRPRPRPVWRPRP ... 0.516

Look at each sequence and report its shrunken log2 fold change.
1. RRIRERPPRLPRPRPRPHIYPRP
2. RRIRTRPPRLPRPRPRPRDTPRP
3. RRIRHRPPRLPRPRPRPFQEPRP

A:
1. -0.226
2. -0.0276
3. -0.00966

###

Test system: Escherichia coli TOP10;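 note: peptides expressed intracellularly from a pBAD plasmid library in pooled LB shake-flask culture, induced with 0.3% L-arabinose, DNA abundance read by NGS, three biological replicates, DESeq2 with apeglm shrinkage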
Experiment Notes: shrunken log2 fold change of peptide-encoding DNA abundance (4.5 h post-induction vs induction); higher = less antimicrobial activity (less host growth inhibition)
Experimental Conditions: time post-induction: 4.5 h; library: site-saturation at positions 5, 18, 19, 20
Assign MET to entries whose shrunken log2 fold change meets or exceeds -0.06; assign NOT MET to the rest.

# count of solved cases: 10
RRIRERPPRLPRPRPRPSQTPRP ... NOT MET
RRIRQRPPRLPRPRPRPDIDPRP ... NOT MET
RRIRKRPPRLPRPRPRPSRLPRP ... MET
RRIRNRPPRLPRPRPRPGRQPRP ... MET
RRIRPRPPRLPRPRPRPHIKPRP ... NOT MET
RRIRYRPPRLPRPRPRPATRPRP ... MET
RRIRRRPPRLPRPRPRPIMGPRP ... NOT MET
RRIRNRPPRLPRPRPRPSEQPRP ... NOT MET
RRIRIRPPRLPRPRPRPNDYPRP ... NOT MET
RRIRWRPPRLPRPRPRPCNQPRP ... NOT MET

Q: Would you say RRIRRRPPRLPRPRPRPKCRPRP shows shrunken log2 fold change at minimum -0.06?
A: MET

Q: Would you say RRIRFRPPRLPRPRPRPFNMPRP shows shrunken log2 fold change at minimum -0.06?
A: NOT MET

Q: Would you say RRIRSRPPRLPRPRPRPKIHPRP shows shrunken log2 fold change at minimum -0.06?
A: MET

Q: Would you say RRIRKRPPRLPRPRPRPMHSPRP shows shrunken log2 fold change at minimum -0.06?
A: MET
